Listing: melting point of selected compounds
parameter: melting point

> print(dat)
                                   compound     meas.value
1        O=C(c1cc(Cc2c[nH]cn2)ccc1O)N1CCCC1    96 to 98 °C
2    Cc1cccc(-n2nc(C)c3c(Cl)c4ccccc4nc32)n1         154 °C
3           COC=C1CN(C(c2ccccc2)c2ccccc2)C1    56 to 58 °C
4     Cc1nc(N)c2nc(C)n(CCCCCSc3ccccc3)c2c1C  181 to 183 °C
5      COc1cc2c(cc1Cl)CCN(C)C[C@H]2c1ccccc1    91 to 92 °C
6  CC(C(=O)O)c1ccc(-c2ccccc2)c(O)c1 (stereo unspecified)  112 to 119 °C

---

parameter: melting point

> print(dat)
                                    compound     meas.value
 1            CCOC(=O)Nc1cccc(CBr)c1C(=O)OCC    70 to 72 °C
 2  O=C1NC(=S)SC1=Cc1ccc2c(c1)N(OCc1ccc(C(F)(F)F)cc1)C(=O)CO2       > 300 °C
 3  O=C(O)/C=C/c1ccc(C(=C2CCCCCC2)c2ccc(O)c(Cl)c2)cc1  155 to 156 °C
 4  CC1CN(c2ccc([N+](=O)[O-])cc2)CC(C)N1 (stereo unspecified)  124 to 125 °C
 5  O=C1NCCN1c1ccc(S(=O)(=O)Nc2ccc(Cl)cc2)cc1  234 to 236 °C
 6  CC(C)c1nc2c(c3c1[nH]c1ccccc13)C(=O)CC(C)(C)C2  176 to 178 °C
 7            CCc1noc(-c2cn(-c3cnccn3)cn2)n1  166 to 167 °C
 8        Cc1ccc(S(=O)(=O)Oc2ccc(C=O)cc2)cc1    70 to 72 °C
 9         CN(C)CCc1c[nH]c2ccc(CCC(=O)O)cc12  195 to 200 °C
10  CC(C)NCC(O)COc1ccc2c(=O)cc(-c3cc(O)cc(O)c3)oc2c1 (stereo unspecified)         130 °C
11  COc1ccc(NC(=O)N[C@H]2C[C@@](N)(C(=O)O)[C@@H]3[C@@H](C(=O)O)[C@@H]32)cc1 (relative stereo)       > 250 °C
12         CC(C)(C)C(=O)C=C(c1ccccc1)n1cncn1    70 to 73 °C
13  C=CCn1c(=O)c2cnc(Nc3ccc(N4CCN(C)CC4)cc3)nc2n(C(C)C)c1=O  176 to 177 °C
14  COc1cc(Nc2c(C#N)cnc3cc(-c4ccc(CCN5CCOCC5)cc4)c(OC)cc23)c(Cl)cc1Cl  215 to 217 °C
15  C=C=CC(C)(O)c1ccc(Br)cc1 (stereo unspecified)    45 to 50 °C
16  CC(=O)CCc1c(C)c(OC(C)=O)c(C)c(C)c1OC(C)=O  85 to 87.5 °C
17    COc1ccc(-c2cccc(C(=O)NN)c2)cc1OC1CCCC1  167 to 168 °C
18                   COc1c2c(cc3ccncc13)OCO2  144 to 145 °C
19  N=C(Nc1ccc(Cl)c(Cl)c1)Nc1ncccc1OCc1ccccc1  161 to 162 °C
20  COc1ccc(Oc2ccc(C(=O)N(C3CCCCC3)C3CCCC3)cc2)cc1OC         154 °C
21     CN(C)C(=O)n1nc(-c2ccncc2)nc1-c1ccncc1  140 to 142 °C
